# study-target: Androgen Receptor (AR) protein (Homo sapiens, UniProt P10275, T878A)
# Construct: endogenous in cells; host or cells: LNCaP
# Sequence (P10275 whole entry T878A): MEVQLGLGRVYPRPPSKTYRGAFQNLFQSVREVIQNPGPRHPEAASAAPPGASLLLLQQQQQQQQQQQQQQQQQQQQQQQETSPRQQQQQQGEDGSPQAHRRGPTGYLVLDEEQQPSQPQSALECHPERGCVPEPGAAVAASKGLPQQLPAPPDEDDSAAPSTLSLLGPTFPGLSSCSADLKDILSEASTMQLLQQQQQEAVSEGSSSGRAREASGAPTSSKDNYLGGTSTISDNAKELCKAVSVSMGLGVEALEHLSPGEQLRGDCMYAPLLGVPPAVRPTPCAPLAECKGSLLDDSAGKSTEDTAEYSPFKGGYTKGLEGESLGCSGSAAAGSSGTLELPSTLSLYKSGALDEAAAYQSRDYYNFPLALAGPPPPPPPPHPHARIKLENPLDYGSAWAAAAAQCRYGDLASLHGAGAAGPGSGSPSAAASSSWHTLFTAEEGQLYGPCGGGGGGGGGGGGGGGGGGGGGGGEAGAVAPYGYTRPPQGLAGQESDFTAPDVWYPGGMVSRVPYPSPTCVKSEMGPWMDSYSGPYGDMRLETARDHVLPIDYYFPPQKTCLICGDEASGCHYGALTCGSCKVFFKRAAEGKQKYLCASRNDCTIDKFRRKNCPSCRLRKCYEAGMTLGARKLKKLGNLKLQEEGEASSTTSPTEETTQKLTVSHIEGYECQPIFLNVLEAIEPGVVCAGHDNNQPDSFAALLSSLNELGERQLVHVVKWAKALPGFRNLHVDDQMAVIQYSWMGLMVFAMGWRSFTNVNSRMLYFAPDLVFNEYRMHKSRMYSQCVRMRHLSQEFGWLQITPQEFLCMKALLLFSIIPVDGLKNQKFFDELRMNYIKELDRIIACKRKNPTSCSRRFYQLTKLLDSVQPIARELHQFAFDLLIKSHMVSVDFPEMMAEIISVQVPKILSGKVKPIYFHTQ
# Sequence (Q96SW2 whole entry partner): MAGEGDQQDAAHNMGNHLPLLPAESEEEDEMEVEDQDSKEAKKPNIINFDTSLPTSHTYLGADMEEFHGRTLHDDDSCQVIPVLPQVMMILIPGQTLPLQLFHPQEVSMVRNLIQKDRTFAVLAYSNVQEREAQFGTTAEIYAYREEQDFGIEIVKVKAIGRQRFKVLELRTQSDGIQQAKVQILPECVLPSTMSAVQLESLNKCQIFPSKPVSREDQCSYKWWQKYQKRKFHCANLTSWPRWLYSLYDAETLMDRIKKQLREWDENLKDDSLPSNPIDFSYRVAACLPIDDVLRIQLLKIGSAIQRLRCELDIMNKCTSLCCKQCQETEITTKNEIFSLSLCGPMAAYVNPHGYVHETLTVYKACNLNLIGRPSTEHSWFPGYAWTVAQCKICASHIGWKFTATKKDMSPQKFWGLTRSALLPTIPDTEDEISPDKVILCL
# test-summary: Androgen Receptor (AR) protein degradation assay in LNCaP cells, western blotting
# Type: cell-based
# test-conditions: 20 h, 0.1 μM compound
Exercise: for every item that follows, state its recorded inhibition at 0.1 µM.
Could you give me the number in %? Just the number is fine.

Request: Look at this compound and give its reported inhibition at 0.1 µM. N#Cc1ccc(N2CCC(C(=O)Nc3ccc(N4CCN(CCCCCOc5ccc6c(c5)C(=O)N(C5CCC(=O)NC5=O)C6=O)CC4)cn3)CC2)cc1Cl (centres unmarked) [Example 114]
Result: 89

Request: Look at this compound and give its reported inhibition at 0.1 µM. N#Cc1ccc(N2CCC(C(=O)Nc3ccc(N4CC(CN5CCN(C[C@@H]6CCN(c7ccc8c(c7)C(=O)N(C7CCC(=O)NC7=O)C8=O)C6)CC5)C4)cn3)CC2)cc1C(F)(F)F (some centres unmarked) [Example 29]
Result: 97

Request: Look at this compound and give its reported inhibition at 0.1 µM. N#Cc1ccc(N2CCC(C(=O)Nc3ccc(N4CCN(CCC5CCN(c6ccc7c(c6)C(=O)N(C6CCC(=O)NC6=O)C7=O)CC5)CC4)cn3)CC2)cc1Cl (centres unmarked) [Example 120]
Result: 88

Request: Look at this compound and give its reported inhibition at 0.1 µM. N#Cc1ccc(N2CCC(C(=O)Nc3ccc(N4CCC(CN5CCC6(CC5)CN(c5ccc7c(c5)C(=O)N(C5CCC(=O)NC5=O)C7=O)C6)CC4)cn3)CC2)cc1Cl (centres unmarked) [Example 64]
Result: 97

Request: Look at this compound and give its reported inhibition at 0.1 µM. N#Cc1ncc(N2CCC(F)(C(=O)Nc3ccc(N4CCC(CN5CCN(CC6CCN(c7ccc8c(c7)C(=O)N(C7CCC(=O)NC7=O)C8=O)CC6)CC5)CC4)cn3)CC2)cc1C(F)(F)F (centres unmarked) [Example 10]
Result: 52

Request: Look at this compound and give its reported inhibition at 0.1 µM. N#Cc1ccc(N2CCC(C(=O)Nc3ccc(OC4CCN(CC5CCN(c6cc7c(cc6F)C(=O)N(C6CCC(=O)NC6=O)C7=O)CC5)CC4)cn3)CC2)cc1C(F)(F)F (centres unmarked) [Example 170]
Result: 90

Request: Look at this compound and give its reported inhibition at 0.1 µM. N#Cc1ccc(N2CCC(C(=O)Nc3ccc(N4CCC(CN5CC(CN6CCN(c7ccc8c(c7)C(=O)N(C7CCC(=O)NC7=O)C8=O)CC6)C5)CC4)cn3)CC2)cc1C(F)(F)F (centres unmarked) [Example 79]
Result: 94

Request: Look at this compound and give its reported inhibition at 0.1 µM. N#Cc1ccc(N2CCC(C(=O)Nc3ncc(N4CCC(CN5CCN(CC6CCN(c7ccc8c(c7)C(=O)N(C7CCC(=O)NC7=O)C8=O)CC6)CC5)CC4)cn3)CC2)cc1C(F)(F)F (centres unmarked) [Example 157]
Result: 33

Request: Look at this compound and give its reported inhibition at 0.1 µM. N#Cc1ccc(N2CCC(C(=O)Nc3ccc(OC4CCN(CC5CN(c6ccc7c(c6)C(=O)N(C6CCC(=O)NC6=O)C7=O)C5)CC4)cn3)CC2)cc1C(F)(F)F (centres unmarked) [Example 171]
Result: 93

Request: Look at this compound and give its reported inhibition at 0.1 µM. N#Cc1ccc(N2CCC(C(=O)Nc3ccc(N4CCC(CN5CCC(CN6CCN(c7ccc8c(c7)C(=O)N(C7CCC(=O)NC7=O)C8=O)CC6)CC5)CC4)cn3)CC2)cc1C(F)(F)F (centres unmarked) [Example 81]
Result: 87

Request: Look at this compound and give its reported inhibition at 0.1 µM. N#Cc1ccc(N2CCC(C(=O)Nc3ccc(N4CCN(CCOC5CCN(c6ccc7c(c6)C(=O)N(C6CCC(=O)NC6=O)C7=O)CC5)CC4)cn3)CC2)cc1C(F)(F)F (centres unmarked) [Example 117]
Result: 84
